meta.source: ChEMBL document CHEMBL3091443

target: UniProt:P49759; assay: Inhibition of human recombinant GST-tagged CLK1 expressed in Escherichia coli using GRSRSRSRSRSR as substrate
pIC50: −log10 of the molar value.
metric_name: pIC50

>>> meas_value("COc1ccc(-c2cnc3c(c2)oc2c(N)ncnc23)cc1")
"< 5.00"
>>> meas_value("Nc1ncnc2c1oc1cc(-c3ccc4c(c3)OCO4)cnc12")
6.49
>>> meas_value("COc1cc(Nc2ncnc3c2oc2cc(-c4ccc5c(c4)OCO5)cnc23)cc(OC)c1OC")
"< 5.00"
>>> meas_value("c1nc(Nc2ccc3c(c2)OCO3)c2oc3cc(-c4ccc5c(c4)OCO5)cnc3c2n1")
"< 5.00"
>>> meas_value("c1cnc2c(c1)oc1c(Nc3ccc4c(c3)OCO4)ncnc12")
"< 5.00"
>>> meas_value("COc1cc(Nc2ncnc3c2oc2cccnc23)cc(OC)c1")
"< 5.00"
>>> meas_value("Fc1cc(Br)ccc1Nc1ncnc2c1oc1cccnc12")
"< 5.00"
>>> meas_value("Clc1ccc(Nc2ncnc3c2oc2cc(-c4ccc5c(c4)OCO5)cnc23)cc1")
"< 5.00"
>>> meas_value("c1ccc(Nc2ncnc3c2oc2cc(-c4ccc5c(c4)OCO5)cnc23)cc1")
"< 5.00"
>>> meas_value("COc1ccc(Nc2ncnc3c2oc2cccnc23)cc1")
"< 5.00"
>>> meas_value("Cc1ccc(-c2cnc3c(c2)oc2c(N)ncnc23)cc1")
6.21

---

biological target: Dual specificity protein kinase CLK1 (Homo sapiens); experiment: Inhibition of human recombinant GST-tagged CLK1 expressed in Escherichia coli using GRSRSRSRSRSR as substrate
pIC50: −log10 of the molar value.
Recorded pIC50 values for a group of molecules are listed next.
metric_name: pIC50

>>> meas_value("Nc1ncnc2c1oc1cccnc12")
"< 5.00"
>>> meas_value("Nc1ncnc2c1oc1cc(-c3ccccc3)cnc12")
6.16
>>> meas_value("c1ccc(Nc2ncnc3c2oc2cccnc23)cc1")
"< 5.00"
>>> meas_value("Cc1ccc(Nc2ncnc3c2oc2cc(-c4ccc5c(c4)OCO5)cnc23)cc1")
"< 5.00"

---

Recorded IC50 values for a group of compounds are listed next.
target: Dual specificity protein kinase CLK1 (Homo sapiens, UniProt P49759); test: Inhibition of human recombinant GST-tagged CLK1 expressed in Escherichia coli using GRSRSRSRSRSR as substrate
Sequence (P49759 whole entry): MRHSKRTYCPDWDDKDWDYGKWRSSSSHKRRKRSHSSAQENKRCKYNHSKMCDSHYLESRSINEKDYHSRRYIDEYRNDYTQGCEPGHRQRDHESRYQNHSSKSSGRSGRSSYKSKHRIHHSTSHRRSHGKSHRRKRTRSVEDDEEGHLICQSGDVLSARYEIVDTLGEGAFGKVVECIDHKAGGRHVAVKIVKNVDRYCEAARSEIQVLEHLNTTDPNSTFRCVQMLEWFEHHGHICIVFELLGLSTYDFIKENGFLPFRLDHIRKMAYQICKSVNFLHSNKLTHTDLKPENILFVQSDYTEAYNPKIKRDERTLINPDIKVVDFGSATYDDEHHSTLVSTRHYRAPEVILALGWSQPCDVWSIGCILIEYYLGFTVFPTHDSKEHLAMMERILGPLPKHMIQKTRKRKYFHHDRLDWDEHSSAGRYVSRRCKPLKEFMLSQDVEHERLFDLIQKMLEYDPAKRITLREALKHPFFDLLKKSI
metric_name: IC50

>>> meas_value("COc1ccc(Nc2ncnc3c2oc2cc(-c4ccc5c(c4)OCO5)cnc23)cc1OC")
"> 10 µM"
>>> meas_value("COc1ccc(Nc2ncnc3c2oc2cc(-c4ccc5c(c4)OCO5)cnc23)cc1")
"> 10 µM"
>>> meas_value("Clc1ccc(Nc2ncnc3c2oc2cc(-c4ccc5c(c4)OCO5)cnc23)cc1Cl")
"> 10 µM"
>>> meas_value("Nc1ncnc2c1oc1cc(-c3ccc(Cl)cc3Cl)cnc12")
"0.049 µM"
>>> meas_value("Fc1ccc(Nc2ncnc3c2oc2cc(-c4ccc5c(c4)OCO5)cnc23)cc1Cl")
"> 10 µM"
>>> meas_value("Fc1ccc(Nc2ncnc3c2oc2cccnc23)cc1Cl")
"> 10 µM"
>>> meas_value("C1=COc2cc(Nc3ncnc4c3oc3cccnc34)ccc2O1")
"> 10 µM"
>>> meas_value("Nc1ncnc2c1oc1cc(-c3cccc(Cl)c3)cnc12")
"1 µM"
>>> meas_value("COc1cc(Nc2ncnc3c2oc2cccnc23)cc(OC)c1OC")
"> 10 µM"
>>> meas_value("Nc1ncnc2c1oc1cc(-c3ccc(Cl)c(Cl)c3)cnc12")
"> 10 µM"
>>> meas_value("COc1ccc(Nc2ncnc3c2oc2cccnc23)cc1OC")
"> 10 µM"
